Origin of measurements: the Human Domainome abundance scans (Beltran et al. 2025)

B1: Tudor domain-containing protein 3, residues 554 to 611; numbered along this chain, Q9H7E2 (parent)
chain: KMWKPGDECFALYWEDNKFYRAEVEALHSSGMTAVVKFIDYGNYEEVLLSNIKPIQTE

variants of: B1; experiment: abundance fitness (aPCA) (normalised: wild type 0, dead -1); higher = more abundant; growth selection in yeast, the domain comes from the species named; details: Homo sapiens
Class (by abundance fitness) -- 0 (below -0.8), 1 (-0.8 to below -0.2), 2 (-0.2 or more)

# mutation.notation, answer.label
records = [
    ("E58I", 2),
    ("D7G", 0),
    ("D40N", 2),
    ("F10G", 0),
    ("M32L", 2),
    ("G42A", 1),
    ("A34F", 0),
    ("I55P", 2),
    ("V36H", 0),
    ("Y20S", 1),
    ("K18N", 1),
]
